# System tested: SARS-CoV-2 Papain like protease (PLpro) (Severe acute respiratory syndrome coronavirus 2 (2019-nCoV) (SARS-CoV-2), UniProt P0DTD1)
# Test: Papain Like Protease (PLpro) biochemical assay with profluorogenic substrate Z-RLRGG-AMC
# Applied conditions: SARS-CoV-2 PLpro 6.25 nM, 25 μM Z-RLRGG-AMC substrate, 60 minute reaction; read-out: IC50
Reported metric: pIC50
pIC50 (log units): -log10 of the concentration in mol/L.

IN: What measured pIC50 goes with Cc1cc(CC(=O)Nc2ncc[nH]2)ccc1C(=O)N[C@H](C)c1cc(-c2cnn(C)c2)nc2ccccc12 [Example 239] ?
OUT: 8.15

IN: Look up pIC50 for this compound: Cc1ccc(N2CCN(C)CC2)cc1C(=O)NC(C)c1cc(-c2cc(C(=O)O)c[nH]2)cc2ccccc12 (stereo not shown) [Example 216]
OUT: 7.92

IN: What does the record list as pIC50 for Cc1ccccc1C(=O)NC(C)c1cc(-c2ccc3c(c2)nnn3C)nc2ccccc12 (stereo not shown) [Example 134] ?
OUT: 6.36

IN: Could you tell me which pIC50 is on file for Cc1ccccc1C(=O)N[C@H](C)c1cc(-c2ccnn2C)nc2ccccc12 [Example 50] ?
OUT: 6.31

IN: Requested read-out: pIC50. Entry: C[C@@H](NC(=O)c1ccccc1CCC(=O)NNC(=O)/C=C/C(N)=O)c1cc(-c2cnn(C)c2)nc2ccccc12 [Example 224]
OUT: 8.22

IN: What value of pIC50 has been reported for the following compound? CNC(=O)c1cc(-c2cc([C@@H](C)NC(=O)c3cc(CN)ccc3C)c3ccccc3n2)cn1C [Example 257]
OUT: 7.66

All values here come from patent US20240245673A1.
